- Test system: SNU-C4 xenografted nude mice
- test-description: Biodistribution study in SNU-C4 xenografted nude mice after intravenous injection
- Format: in vivo, mouse
- condition-notes: spleen, 30 min after intravenous injection
Tag: Yes if measured % ID/g Spleen is not below 0.7 % ID/g, No if it is.

[[record]]
compound = "NC(CN1CCN(CC(=O)[O-])CCNCCN(CC(=O)[O-])CC1)C(=O)[O-].[68Ga+3] (centres unmarked) [^68Ga-DO2A-ala]"
label_value = "Yes"

[[record]]
compound = "NC(CNC(=O)CN1CCN(CC(=O)[O-])CCN(CC(=O)[O-])CC1)C(=O)[O-].[68Ga+3] (centres unmarked) [^68Ga-NOTA-ala]"
label_value = "Yes"

[[record]]
compound = "O=C([O-])CN1CCN(CC(=O)[O-])CCN(CC(=O)[O-])CC1.[68Ga+3] [^68Ga-NOTA, reference compound]"
label_value = "No"

[[record]]
compound = "N[C@@H](CN1CCN(CC(=O)[O-])CCN(CC(=O)[O-])CCN(CC(=O)[O-])CC1)C(=O)O.[68Ga+3] (stereo in doubt) [^68Ga-DO3A-ala]"
label_value = "Yes"

[[record]]
compound = "O=C([O-])CN1CCNCCN(CC(=O)[O-])CCNCC1.[68Ga+3] [^68Ga-DO2A, reference compound]"
label_value = "Yes"

[[record]]
compound = "NC(CNC(=O)CN1CCN(CC(=O)[O-])CCN(CC(=O)[O-])CCN(CC(=O)[O-])CC1)C(=O)O.[68Ga+3] (centres unmarked) [^68Ga-DOTA-ala]"
label_value = "Yes"

[[record]]
compound = "O=C([O-])CN1CCN(CC(=O)[O-])CCN(CC(=O)O)CCN(CC(=O)[O-])CC1.[68Ga+3] [^68Ga-DOTA, reference compound]"
label_value = "No"

[[record]]
compound = "O=C([O-])CN1CCNCCN(CC(=O)[O-])CCN(CC(=O)[O-])CC1.[68Ga+3] [^68Ga-DO3A, reference compound]"
label_value = "Yes"


====

Let's look at some compounds and their measured % ID/g Lung.
- Tested on: SNU-C4 xenografted nude mice
- test-description: Biodistribution study in SNU-C4 xenografted nude mice after intravenous injection
- Assay type: in vivo, mouse
- condition-notes: lung, 2 hr after intravenous injection
assay-metric: % ID/g Lung (% ID/g)

[[record]]
compound = "N[C@@H](CN1CCN(CC(=O)[O-])CCN(CC(=O)[O-])CCN(CC(=O)[O-])CC1)C(=O)O.[68Ga+3] (stereo in doubt) [^68Ga-DO3A-ala]"
val = 8.04

[[record]]
compound = "O=C([O-])CN1CCNCCN(CC(=O)[O-])CCN(CC(=O)[O-])CC1.[68Ga+3] [^68Ga-DO3A, reference compound]"
val = 0.61

[[record]]
compound = "O=C([O-])CN1CCNCCN(CC(=O)[O-])CCNCC1.[68Ga+3] [^68Ga-DO2A, reference compound]"
val = 0.87

[[record]]
compound = "NC(CN1CCN(CC(=O)[O-])CCNCCN(CC(=O)[O-])CC1)C(=O)[O-].[68Ga+3] (stereo not shown) [^68Ga-DO2A-ala]"
val = 3.23


====

- System: SNU-C4 xenografted nude mice
- test-description: Biodistribution study in SNU-C4 xenografted nude mice after intravenous injection
- Assay type: in vivo, mouse
- condition-notes: stomach, 2 hr after intravenous injection
assay-metric: % ID/g Stomach (% ID/g)

[[record]]
molecule = "O=C([O-])CN1CCN(CC(=O)[O-])CCN(CC(=O)O)CCN(CC(=O)[O-])CC1.[68Ga+3] [^68Ga-DOTA, reference compound]"
subject_of_test = "SNU-C4 xenografted nude mice"
val = 0.10

[[record]]
molecule = "NC(CN1CCN(CC(=O)[O-])CCNCCN(CC(=O)[O-])CC1)C(=O)[O-].[68Ga+3] (stereo not shown) [^68Ga-DO2A-ala]"
subject_of_test = "SNU-C4 xenografted nude mice"
val = 0.38

[[record]]
molecule = "O=C([O-])CN1CCN(CC(=O)[O-])CCN(CC(=O)[O-])CC1.[68Ga+3] [^68Ga-NOTA, reference compound]"
subject_of_test = "SNU-C4 xenografted nude mice"
val = 0.11

[[record]]
molecule = "O=C([O-])CN1CCNCCN(CC(=O)[O-])CCN(CC(=O)[O-])CC1.[68Ga+3] [^68Ga-DO3A, reference compound]"
subject_of_test = "SNU-C4 xenografted nude mice"
val = 0.16


====

- Tested on: SNU-C4 xenografted nude mice
- test-description: Biodistribution study in SNU-C4 xenografted nude mice after intravenous injection
- Type: in vivo, mouse
- condition-notes: intestine, 30 min after intravenous injection
assay-metric: % ID/g Intestine

[[record]]
molecule = "O=C([O-])CN1CCN(CC(=O)[O-])CCN(CC(=O)[O-])CC1.[68Ga+3] [^68Ga-NOTA, reference compound]"
assay_metric = "% ID/g Intestine"
val = "0.84 ± 0.10 % ID/g"

[[record]]
molecule = "O=C([O-])CN1CCNCCN(CC(=O)[O-])CCNCC1.[68Ga+3] [^68Ga-DO2A, reference compound]"
assay_metric = "% ID/g Intestine"
val = "1.27 ± 0.25 % ID/g"

[[record]]
molecule = "N[C@@H](CN1CCN(CC(=O)[O-])CCN(CC(=O)[O-])CCN(CC(=O)[O-])CC1)C(=O)O.[68Ga+3] (stereo in doubt) [^68Ga-DO3A-ala]"
assay_metric = "% ID/g Intestine"
val = "1.74 ± 0.14 % ID/g"

[[record]]
molecule = "O=C([O-])CN1CCNCCN(CC(=O)[O-])CCN(CC(=O)[O-])CC1.[68Ga+3] [^68Ga-DO3A, reference compound]"
assay_metric = "% ID/g Intestine"
val = "1.00 ± 0.14 % ID/g"


====

Each entry below lists one item and its recorded % ID/g Bone value.
- System: SNU-C4 xenografted nude mice
- test-description: Biodistribution study in SNU-C4 xenografted nude mice after intravenous injection
- Format: in vivo, mouse
- condition-notes: bone, 30 min after intravenous injection
assay-metric: % ID/g Bone (% ID/g)

[[record]]
compound = "NC(CNC(=O)CN1CCN(CC(=O)[O-])CCN(CC(=O)[O-])CC1)C(=O)[O-].[68Ga+3] (stereo not drawn) [^68Ga-NOTA-ala]"
val = 1.05

[[record]]
compound = "O=C([O-])CN1CCN(CC(=O)[O-])CCN(CC(=O)O)CCN(CC(=O)[O-])CC1.[68Ga+3] [^68Ga-DOTA, reference compound]"
val = 0.85

[[record]]
compound = "O=C([O-])CN1CCNCCN(CC(=O)[O-])CCNCC1.[68Ga+3] [^68Ga-DO2A, reference compound]"
val = 1.54


====

- System: SNU-C4 xenografted nude mice
- test-description: Biodistribution study in SNU-C4 xenografted nude mice after intravenous injection
- Type: in vivo, mouse
- condition-notes: spleen, 10 min after intravenous injection
assay-metric: % ID/g Spleen (% ID/g)

[[record]]
compound = "O=C([O-])CN1CCN(CC(=O)[O-])CCN(CC(=O)[O-])CC1.[68Ga+3] [^68Ga-NOTA, reference compound]"
subject_of_test = "SNU-C4 xenografted nude mice"
val = 1.41

[[record]]
compound = "NC(CNC(=O)CN1CCN(CC(=O)[O-])CCN(CC(=O)[O-])CC1)C(=O)[O-].[68Ga+3] (stereo not drawn) [^68Ga-NOTA-ala]"
subject_of_test = "SNU-C4 xenografted nude mice"
val = 1.84

[[record]]
compound = "NC(CNC(=O)CN1CCN(CC(=O)[O-])CCN(CC(=O)[O-])CCN(CC(=O)[O-])CC1)C(=O)O.[68Ga+3] (stereo not drawn) [^68Ga-DOTA-ala]"
subject_of_test = "SNU-C4 xenografted nude mice"
val = 1.64

[[record]]
compound = "O=C([O-])CN1CCNCCN(CC(=O)[O-])CCNCC1.[68Ga+3] [^68Ga-DO2A, reference compound]"
subject_of_test = "SNU-C4 xenografted nude mice"
val = 1.86

[[record]]
compound = "O=C([O-])CN1CCN(CC(=O)[O-])CCN(CC(=O)O)CCN(CC(=O)[O-])CC1.[68Ga+3] [^68Ga-DOTA, reference compound]"
subject_of_test = "SNU-C4 xenografted nude mice"
val = 1.41

[[record]]
compound = "NC(CN1CCN(CC(=O)[O-])CCNCCN(CC(=O)[O-])CC1)C(=O)[O-].[68Ga+3] (stereo not drawn) [^68Ga-DO2A-ala]"
subject_of_test = "SNU-C4 xenografted nude mice"
val = 1.61


====

- System: SNU-C4 xenografted nude mice
- test-description: Biodistribution study in SNU-C4 xenografted nude mice after intravenous injection
- Format: in vivo, mouse
- condition-notes: bone, 10 min after intravenous injection
Reported % ID/g Bone values for a set of compounds
assay-metric: % ID/g Bone (% ID/g)

[[record]]
compound = "O=C([O-])CN1CCNCCN(CC(=O)[O-])CCNCC1.[68Ga+3] [^68Ga-DO2A, reference compound]"
assay_metric = "% ID/g Bone"
val = 2.56

[[record]]
compound = "O=C([O-])CN1CCN(CC(=O)[O-])CCN(CC(=O)[O-])CC1.[68Ga+3] [^68Ga-NOTA, reference compound]"
assay_metric = "% ID/g Bone"
val = 1.95

[[record]]
compound = "O=C([O-])CN1CCN(CC(=O)[O-])CCN(CC(=O)O)CCN(CC(=O)[O-])CC1.[68Ga+3] [^68Ga-DOTA, reference compound]"
assay_metric = "% ID/g Bone"
val = 1.86

[[record]]
compound = "NC(CNC(=O)CN1CCN(CC(=O)[O-])CCN(CC(=O)[O-])CC1)C(=O)[O-].[68Ga+3] (stereo not shown) [^68Ga-NOTA-ala]"
assay_metric = "% ID/g Bone"
val = 2.22


Values compiled from patent US20120029177A1.
